measured_on: T1, BAFF (Sino biological, 10056-HNCH) (UniProt Q9Y275 134-285, biotinylated in the blocking ELISA (site not stated))
T1 construct: also called BLyS
measurement_notes: ELISA, BAFF coated at 1 ug/mL, anti-human IgG-HRP
assay_endpoint: EC50 (nM)
Quick reminder: number only, in nM, skip the unit.

Observe how each entry below is paired with its result.
Entry TACI-9-14-Fc (Fc fusion) STSCRKEQGKFYDHLLRDCISCASICGQHPKQCAAYCENKLDKTHTCPPCPAPEAEGAPSVFLFPPKPKDTLMISRTPEVTCVVVDVSHEDPEVKFNWYVDGVEVHNAKTKPREEQYNSTYRVVSVLTVLHQDWLNGKEYKCKVSNKALPSSIEKTISKAKGQPREPQVYTLPPSRDELTKNQVSLTCLVKGFYPSDIAVEWESNGQPENNYKTTPPVLDSDGSFFLYSKLTVDKSRWQQGNVFSCSVMHEALHNHYTQKSLSLSPGK — recorded EC50 = 0.223

Value of EC50 reported for the binder TACI-9-11-Fc (Fc fusion) SLSCSEEQGEFYDHLLRDCISCASICGQHPKQCAYFCENKLDKTHTCPPCPAPEAEGAPSVFLFPPKPKDTLMISRTPEVTCVVVDVSHEDPEVKFNWYVDGVEVHNAKTKPREEQYNSTYRVVSVLTVLHQDWLNGKEYKCKVSNKALPSSIEKTISKAKGQPREPQVYTLPPSRDELTKNQVSLTCLVKGFYPSDIAVEWESNGQPENNYKTTPPVLDSDGSFFLYSKLTVDKSRWQQGNVFSCSVMHEALHNHYTQKSLSLSPGK is 0.195

The measured EC50 associated with TACI-9-Fc (Fc fusion, C-terminus of TACI-9 fused directly to the N-terminus of human IgG1 Fc; two identical polypeptide chains; expressed in 293E) SLSCRKEQGKFYDHLLRDCISCASICGQHPKQCAYFCENKLDKTHTCPPCPAPEAEGAPSVFLFPPKPKDTLMISRTPEVTCVVVDVSHEDPEVKFNWYVDGVEVHNAKTKPREEQYNSTYRVVSVLTVLHQDWLNGKEYKCKVSNKALPSSIEKTISKAKGQPREPQVYTLPPSRDELTKNQVSLTCLVKGFYPSDIAVEWESNGQPENNYKTTPPVLDSDGSFFLYSKLTVDKSRWQQGNVFSCSVMHEALHNHYTQKSLSLSPGK reads 0.418

Summary for this binder, TACI-9-4-Fc (Fc fusion) SLSCRQEQGKFYDHLLRDCISCASICGQHPKQCAYFCENKLDKTHTCPPCPAPEAEGAPSVFLFPPKPKDTLMISRTPEVTCVVVDVSHEDPEVKFNWYVDGVEVHNAKTKPREEQYNSTYRVVSVLTVLHQDWLNGKEYKCKVSNKALPSSIEKTISKAKGQPREPQVYTLPPSRDELTKNQVSLTCLVKGFYPSDIAVEWESNGQPENNYKTTPPVLDSDGSFFLYSKLTVDKSRWQQGNVFSCSVMHEALHNHYTQKSLSLSPGK : EC50 is 0.469

New cases:
EC50 for TACI-9-10-Fc (Fc fusion) SLSCREEQGEFYDHLLRDCISCASICGQHPKQCAYFCENKLDKTHTCPPCPAPEAEGAPSVFLFPPKPKDTLMISRTPEVTCVVVDVSHEDPEVKFNWYVDGVEVHNAKTKPREEQYNSTYRVVSVLTVLHQDWLNGKEYKCKVSNKALPSSIEKTISKAKGQPREPQVYTLPPSRDELTKNQVSLTCLVKGFYPSDIAVEWESNGQPENNYKTTPPVLDSDGSFFLYSKLTVDKSRWQQGNVFSCSVMHEALHNHYTQKSLSLSPGK is 0.12

The measured values listed here are drawn from patent US20260056186A1.
